The reported numbers originate from ChEMBL document CHEMBL1201862.

Test system: SNB-75
Assay: NCI tumour cell line growth inhibition, 48 h
The source made the active and inactive calls. Rule as the data show it: active = GI50 up to about 1.1 µM and inactive = higher.
For each entry below, report its GI50 value.

## Input Please report GI50 with SNB-75 for item COc1ccc(N2C(=O)C3c4[nH]c5ccc(OC)cc5c4C4CCC(c5ccccc5)CC4C3C2=O)cc1 (stereo not given) .
## Output 3.15 µM (inactive)

## Input Please report GI50 with SNB-75 for item CCOC(=O)/C=C(\N=P(c1ccccc1)(c1ccccc1)c1ccccc1)C(F)(F)C(F)(F)C(F)(F)C(F)(F)C(F)(F)F .
## Output > 100 µM (inactive)

## Input Please report GI50 with SNB-75 for item Cn1cnc2nc(Cl)nc(NC(C)(C)C(C)(C)O)c21 .
## Output > 100 µM (inactive)

## Input Please report GI50 with SNB-75 for item O=C(O)c1cc2cc(c1)/N=C/c1ccccc1OCc1cccc(n1)COc1ccccc1/C=N/2 .
## Output > 25 µM (inactive)

## Input Please report GI50 with SNB-75 for item Cn1c2c([N+](=O)[O-])[se]nc2c(=O)n1-c1ccc([N+](=O)[O-])cc1 .
## Output 4.03 µM (inactive)
